Target: T1, CRH (CT-Biotin) (human and mouse, biotin on the added C-terminal K (-K-Biotin))
T1 construct: also called Peptide 4 (CRH-Biotin); C-terminally biotinylated corticotropin-releasing hormone
T1 peptide: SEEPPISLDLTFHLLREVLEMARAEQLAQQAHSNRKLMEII
Experiment: ELISA, C-terminally biotinylated CRH on streptavidin-coated plate
pEC50: −log10 of the molar value.
assay_metric: pEC50

>>> value("PR301803 (antibody, human IgG1, kappa, V domains shown, Mouse variable domains, expressed recombinantly with human IgG1 wildtype Fc; also called Series 5 mAb) VH: EVKLEESGGGLVQPGGSMKLSCVASGFTFNNYWMNWVRQSPEKGLEWVAEIRLKSNNYATHYAESLKGRFTISRDDSKSSVYLQMNNLRAEDTGIYYCTVGTLVYWGQGTLVTVSA VL: DIVLTQSPASLVVSLGQRATISCRASQSVSTSTYNYMHWYQQKPGQPPKLLIKFASNLESGVPARFSGSGSGTDFTLNIHPVEEEDTATFYCQHSWEIPYTFGGGTKLEIKR")
10.89
